Source listed as patent US20250027068.

I'd appreciate it if you could supply Enzyme Activity Endpoint Assay: Fc values for the items below.
molecular target: pooled human IgG (human IgG1,2,3 and 4)
Give the value, in units of ng/µL, as a plain number.

Query: Enzyme Activity Endpoint Assay: Fc; subject: PRT-324 (protein) MTITSVWTKGVTPPTPEDFRENNEDVLHAPYVANQGWYDITKTFDGKDNLLCGAATAGNMLHWWFDQNKEEIERYLKKHPEKQKIIFGNQELFDVKAAIDTKDSQTNSKLFNYFRDKAFPNLSARQLGVMPDLVLDMFINGYYLNLGKTQSTDVNRPYQDKDKRGGIFDAVFTRGDQTTLLTARHDLKNKGLNEISDLIKQELTEGKALALSHTYANVRINHVINLWGADFDAEGNLIAIYVTDSDANPSIGMKKYFVGRNANGKVAISAKKIEGDNIGAQVLGLFTLSTGQDIWQKLS
291

Thanks! And PRT-100 (protein) MANQEIRYSEVTPYHVTSVWTKGVTPPAKFTQGEDVFHAPYVANQGWYDITKTFNGKDDLLCGAATAGNMLHWWFDQNKEKIEAYLKKHPDKQKIMFGDQELLDVRKVINTKGDQTNSELFNYFRDKAFPNLSARRIGVMPDLVLDMFINGYYLNVYKTQTTDVNRTYQEKDRRGGIFDAVFTRGDQSKLLTSRHDFKEKNLKEISDLIKKELTEGKALGLSHTYANVRINHVINLWGADFDSNGNLKAIYVTDSDSNASIGMKKYFVGVNSAGKVAISAKEIKEDNIGAQVLGLFTLSTGQDSWNQTN ?
178

Thanks! And PRT-244 (protein) MVTSVWTKGVTPPANFTQGEDVFHAPYVANQGWYDITKTFNGKDDLLCGAATAGNMLHWWFDQNKDQIKRYLEEHPEKQKINFNGEQMFDVKEAIDTKNHQLDSKLFEYFLEKAFPNLSTKHLGVFPDHVIDMFINGYRLSLLNHGPTPVKEGSKDPRGGIFDAVFTRGDQSKLLTSRHDFKEKNLKEISDLIKKELTEGKALGLSHTYANVRINHVINLWGADFDSNGNLKAIAVTDSDSNASIGMKKYFVGVNSSGKVAISAKEIKEDNIGAQVLGLFTLSTGQDSWNQTN ?
429

Thanks! And PRT-315 (protein) MQITSVWTKGVTPLTPEQFRENNEDVIHAPYLAHQGWYDITKAFDGKDNLLCGAATAGNMLHWWFDQNKTEIEAYLSKHPEKQKIIFNNQELFDLKAAIDTKDSQTNSQLFDYFRDKAFPNLSARQLGVMPDLVLDMFINGYYLNVFKTQSTDVNRPYQDKDKRGGIFDAVFTRGDQTTLLTARHDLKNKGLNDISTIIKQELTEGRALALSHTYANVSISHVINLWGADFNAEGELEAIYVTDSDANPSIGMKKYFVGRNAHGHVAISAKKIEGENIGAQVLGLFTLSSGKDIWQKLS ?
408

Thanks! And PRT-108 (protein) MRNATEAYAKEVPHQITSVWTKGVTPPTPEQFRYNNEDVIHAPYTAHQGWYDITKTFDGKDNLLCGAATAGNMLHWWFDQNKTEIEAYLSKHPEKQKIIFNNQELFDLKAAIDTKDSQTNSQLFNYFRDKAFPNLSARQLGVMPDLVLDMFINGYYLNVFKTQSTDVNRPYQDKDKRGGIFDAVFTRGDQTTLLTARHDLKNKGLNDISTLIKQELTEGRALALSHTYANVSISHVINLWGADFNAEGNLEAIYVTDSDANASIGMKKYFVGINAAGHVAISAKKIEGENIGAQVLGLFTLSSGKDIWQKLS ?
203
